Target under test: human CB1 receptor (Homo sapiens)
Sequence (P21554 whole entry): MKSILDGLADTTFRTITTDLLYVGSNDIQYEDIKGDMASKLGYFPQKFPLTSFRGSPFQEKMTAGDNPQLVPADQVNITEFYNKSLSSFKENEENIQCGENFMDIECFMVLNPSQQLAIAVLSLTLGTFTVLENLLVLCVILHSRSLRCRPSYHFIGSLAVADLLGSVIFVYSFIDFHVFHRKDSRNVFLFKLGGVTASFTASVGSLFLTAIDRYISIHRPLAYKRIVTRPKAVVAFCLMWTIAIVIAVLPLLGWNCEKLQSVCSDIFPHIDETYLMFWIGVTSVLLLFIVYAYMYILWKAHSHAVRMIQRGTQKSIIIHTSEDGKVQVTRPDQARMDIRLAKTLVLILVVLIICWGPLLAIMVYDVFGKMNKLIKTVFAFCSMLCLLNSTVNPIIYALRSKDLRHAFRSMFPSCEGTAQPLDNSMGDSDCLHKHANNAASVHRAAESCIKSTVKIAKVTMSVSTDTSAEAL
Test protocol: In-vitro determination of efficacy and potency at the human CB1 receptor expressed in CHO cells (luciferase reporter assay)
Experimental setup: CHO cells expressing the human CB1 receptor and a luciferase reporter gene; 5 h at 37 °C
Measured quantity: log10 EC50 (log10 of the value in nM)

{"Compound": "OCC1CCN(Cc2nnc(-c3cn(CC4CCCCC4)c4c(Cl)cccc34)o2)CC1", "log10 EC50": 2.10}
{"Compound": "CN(C)S(=O)(=O)N(CCO)Cc1nc(-c2cn(CC3CCOCC3)c3c(Cl)cccc23)no1", "log10 EC50": 2.00}
{"Compound": "CN(CC(N)=O)Cc1nc(-c2cn(CC3CCOCC3)c3c(Cl)cccc23)no1", "log10 EC50": 1.60}
{"Compound": "COCCN(Cc1nc(-c2cn(CC3CCOCC3)c3c(Cl)cccc23)ns1)S(C)(=O)=O", "log10 EC50": 1.90}
{"Compound": "COCC(=O)NCc1nc(-c2cn(CC3CCOCC3)c3c(Cl)cccc23)no1", "log10 EC50": 2.30}
{"Compound": "O=C(NCCO)C1CCN(Cc2nc(-c3cn(CC4CCOCC4)c4c(Cl)cccc34)no2)CC1", "log10 EC50": 1.90}
{"Compound": "CS(=O)(=O)N(CCO)Cc1nc(-c2cn(CC3CCOCC3)c3c(Cl)cccc23)ns1", "log10 EC50": 1.30}
{"Compound": "CN(CC(=O)NCC(N)=O)Cc1nc(-c2cn(CC3CCOCC3)c3c(Cl)cccc23)no1 [Example 20A]", "log10 EC50": 1.50}
{"Compound": "CCc1cccc2c(-c3nsc(CN4CCC(C(=O)NCCO)CC4)n3)cn(CC3CCOCC3)c12 [Example 10A]", "log10 EC50": 1.10}
{"Compound": "CCc1cccc2c(-c3nsc(CN(C)CC(N)=O)n3)cn(CC3CCOCC3)c12", "log10 EC50": 2.10}
{"Compound": "CN(CC(=O)NCCO)Cc1nc(-c2cn(CC3CCOCC3)c3c(Cl)cccc23)no1 [Example 20B]", "log10 EC50": 1.70}
